Data provenance is patent US20220220218A1.

Below, each entry is listed alongside its reported kon.
- test target: T1, human CD73 (huCD73) protein, antigen of the Biacore assay (human, UniProt P21589 27-547, limits assumed)
- T1 construct: also called human CD73 antigen
- T1 sequence (looked up): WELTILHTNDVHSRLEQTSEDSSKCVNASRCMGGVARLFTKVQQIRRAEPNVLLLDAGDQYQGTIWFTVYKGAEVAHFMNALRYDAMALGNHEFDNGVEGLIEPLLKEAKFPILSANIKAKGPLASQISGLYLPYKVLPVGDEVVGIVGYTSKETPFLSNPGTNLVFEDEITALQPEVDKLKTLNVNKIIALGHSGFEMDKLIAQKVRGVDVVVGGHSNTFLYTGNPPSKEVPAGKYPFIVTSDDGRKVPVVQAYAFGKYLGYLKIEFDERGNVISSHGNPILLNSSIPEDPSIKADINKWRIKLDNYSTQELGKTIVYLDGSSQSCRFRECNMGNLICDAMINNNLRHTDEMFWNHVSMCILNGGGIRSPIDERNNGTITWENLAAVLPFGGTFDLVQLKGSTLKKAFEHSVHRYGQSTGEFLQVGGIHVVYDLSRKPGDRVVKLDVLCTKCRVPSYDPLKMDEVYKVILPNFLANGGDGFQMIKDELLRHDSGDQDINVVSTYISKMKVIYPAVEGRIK
- experiment: SPR Biacore T200; antibody captured on Protein A chip, CD73 in flow; 1:1 Langmuir
- Text: In this experiment, Biacore instrument was used to determine the affinity of the humanized anti-CD73 antibodies to be tested with human CD73 (huCD73) and monkey CD73 (cynoCD73). A certain amount of test antibody was affinity-captured with Protein A biosensing chip (Cat. #29127556, GE), and then a certain concentration of human or monkey CD73 antigen was allowed to flow through the surface of the chip. […]
Supply the numeric figure in M⁻¹ s⁻¹, leaving out any unit text.

Example binders with recorded kon:
Data request: Output kon of Hab108.23 (antibody, V domains shown, VL2 + VH3; full-length antibody) VH: EVTLKESGPVLVKPTETLTLTCTVSGFSLSSYGIQWVRQPPGKLLEWLGVIWSGGSADYNAAFISRLTISKDTSKSQVVLTMTNMDPVDTATYYCAGQYGSVWGQGTLVTVSS VL: DIQMTQSPSSLSASVGDRVTITCRASQDIGDRLNWLQQKPGKAIKRLIYATSSLDSGVPSRFSGSGSGTEYTLTISSLQPEDFATYYCLQYAGSWTFGGGTKVEIK
Data returned: 205000

Data request: Identify kon associated with the binder CH127 (antibody, V domains shown, also called chimeric antibody of mab127) VH: EVQLQQSGPELVKPGESVKISCKASGYSFTAYFMNWVMQSHRKSLEWIGRIYHNNGDTFYSQKFKGKATLTVDKSSNTVHMELRSLTSEDSAVYFCATSYVGDWGQGTTLTVSS VL: DIQMTQSPSSLSASLGERVSLTCRASQDIGDSLNWLQQAPDGTLKRLIYATSSLDSGVPRRFSGSRSGSDYSLTISSLESEDFVDYYCLQYASFPWTFGGGTKLEIK
Data returned: 239000

In the following, a different binder is considered.
Data request: Look up and report measured kon for this entry: Hab110.31 (antibody, V domains shown, VL3 + VH1; recombined with human heavy and light constant regions) VH: EVQLVQSGAEVKKPGASVKVSCKASGYTFTSYTMHWVRQAPGQRLEWMGYINPNSFYIEYNQKFKDRVTITRDTSASTAYMELSSLRSEDTAVYYCARGDYDLFYDMDNWGQGTTVTVSS VL: DIQMTQSPSSLSASVGDRVTITCRASQDIGNSLNWLQQKPGGAIKRLIYATFRLDSGVPSRFSGSRSGTEYTLTISSLQPEDFADYYCQQYASFPWTFGGGTKVEIK
Data returned: 364000
